Just for reference, patent US20180185450A1 is where these values come from.

- System: human glucagon receptor (human, UniProt P47871 26-477)
- Sequence (P47871 26-477): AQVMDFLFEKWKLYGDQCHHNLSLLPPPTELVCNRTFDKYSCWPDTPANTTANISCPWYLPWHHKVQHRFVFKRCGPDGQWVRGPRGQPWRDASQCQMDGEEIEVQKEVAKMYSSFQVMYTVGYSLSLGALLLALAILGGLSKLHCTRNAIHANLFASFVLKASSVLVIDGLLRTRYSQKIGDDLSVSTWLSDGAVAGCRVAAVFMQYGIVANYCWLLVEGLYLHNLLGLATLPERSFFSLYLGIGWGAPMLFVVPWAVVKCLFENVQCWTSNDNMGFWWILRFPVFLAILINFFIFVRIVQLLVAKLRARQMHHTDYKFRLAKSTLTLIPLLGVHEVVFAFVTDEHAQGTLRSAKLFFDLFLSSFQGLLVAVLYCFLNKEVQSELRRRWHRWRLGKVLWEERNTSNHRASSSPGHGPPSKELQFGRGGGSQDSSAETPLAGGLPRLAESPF
- Experiment: cell-based or functional assay
Readout: EC50 hGlucagon-R (cAMP)

> print(dat)
                                     binder  readout.value
1  HXQGTFTSDLSKQKDSKAAQDFIEWLKSGGPSSGAPPPS (dSer at 2; K(γE-x53) at 14; C-terminal NH2) [SEQ ID NO: 173]         5.9 pM
2  HXQGTFTSDLSKQKDSRRAQDFIEWLKNGGPSSGAPPPS (dSer at 2; K(γE-x53) at 14; C-terminal N(diethyl)) [SEQ ID NO: 101]         1.7 pM
3  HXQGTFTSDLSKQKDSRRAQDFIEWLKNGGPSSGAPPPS (dSer at 2; K(γE-x72) at 14; C-terminal NH2) [SEQ ID NO: 91]         8.9 pM
4  HXQGTFTSDLSKQKDSKAAQDFIEWLKAGGPSSGAPPPS (dSer at 2; K(γE-X95) at 14; C-terminal NH2) [SEQ ID NO: 142]         2.1 pM
5  HXQGTFTSDLSKQKESRAAQDFIEWLKAGGPSSGAPPPS (dSer at 2; K(γE-x74) at 14; C-terminal NH2) [SEQ ID NO: 55]        15.8 pM
6  HXQGTFTSDLSKQKDSRRAQDFIEWLKDGGPSSGAPPPS (dSer at 2; K(x53) at 14; C-terminal NH2) [SEQ ID NO: 81]         7.1 pM
7  HXQGTFTSDLSKQKESKAAQLFIEWLKAGGPSSGAPPPS (dSer at 2; K(γE-x53) at 14; C-terminal NH2) [SEQ ID NO: 29]        87.9 pM
